- study_target: T1, recombinant human IL-7Rα-His6-Fc (human, UniProt P16871 21-239)
- T1 construct: also called hIL-7R; not shown: His6 tag; Fc (captured by anti-human IgG Fc)
- T1 chain: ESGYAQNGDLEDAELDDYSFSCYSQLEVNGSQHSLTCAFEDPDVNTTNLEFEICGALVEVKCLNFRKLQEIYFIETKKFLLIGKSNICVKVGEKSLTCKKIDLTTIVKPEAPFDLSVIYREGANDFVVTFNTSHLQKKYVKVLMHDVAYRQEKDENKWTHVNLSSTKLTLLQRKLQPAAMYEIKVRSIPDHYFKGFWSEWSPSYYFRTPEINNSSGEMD
- experiment: IL-7/IL-7Rα-His6-Fc ELISA; inhibition of IL-7 binding to IL-7R
pEC50: −log10 of the molar value.

- binder: "ID-A30U (VHH, V7R-2E9 with E44G, Q65K, K87R, S88A) VHH: EVQLVESGGGLVQAGGSLRLSCESSISTFSSDAMGWFRQAPGKGREFLAAIGWSGAVTHYSDSVKGRFTISRDNAKNTVYLQMNSLRAEDTGRYYCAEDYDTDVWQYWGQGTQVTVSS"
  pEC50: 9.44
- binder: "ID-A25U (VHH, V7R-2E9 with E44G, F47W, Q65K, K87R, S88A) VHH: EVQLVESGGGLVQAGGSLRLSCESSISTFSSDAMGWFRQAPGKGREWLAAIGWSGAVTHYSDSVKGRFTISRDNAKNTVYLQMNSLRAEDTGRYYCAEDYDTDVWQYWGQGTQVTVSS"
  pEC50: 9.08
- binder: "ID-A31U (VHH, V7R-2E9 with E44G, Q65K) VHH: EVQLVESGGGLVQAGGSLRLSCESSISTFSSDAMGWFRQAPGKGREFLAAIGWSGAVTHYSDSVKGRFTISRDNAKNTVYLQMNSLKSEDTGRYYCAEDYDTDVWQYWGQGTQVTVSS"
  pEC50: 9.47
- binder: "ID-A27U (VHH, V7R-2E9 with E44G, R45L, F47W, K87R, S88A) VHH: EVQLVESGGGLVQAGGSLRLSCESSISTFSSDAMGWFRQAPGKGLEWLAAIGWSGAVTHYSDSVQGRFTISRDNAKNTVYLQMNSLRAEDTGRYYCAEDYDTDVWQYWGQGTQVTVSS"
  pEC50: 9.40
